Every entry's value here was drawn from paper PMC4501006.

Assay: In vivo metabolism (biostability), HPLC analysis of organ samples
Settings: ICR mice, i.v., post-injection time 60 min
Measured Percentage of Parent tracer, Brain accompanies every entry in the list below.
Give the value, in units of %, as a plain number.

Example compounds with recorded Percentage of Parent tracer, Brain:
>  <compound>
[18F]CCOc1ccc(COc2ccc(I)cc2)cc1 [[^18F]12a]

>  <readoutUnits>
%

>  <measurement>
29.8

$$$$
>  <compound>
[18F]CCOc1ccc(OCc2ccc(I)cc2)cc1 [[^18F]7a]

>  <readoutUnits>
%

>  <measurement>
34.0

$$$$
>  <compound>
FCCOc1ccc(OCc2ccc([125I])cc2)cc1 [[^125I]7a]

>  <readoutUnits>
%

>  <measurement>
72.1

$$$$

Could you now look at the following compound, please?
Ask: Name the reported Percentage of Parent tracer, Brain value associated with the compound FCCOc1ccc(COc2ccc([125I])cc2)cc1 [[^125I]12a]
Result: 68.6
